Tested on: SF-539 CNS
Assay: NCI-60 one-dose screen, 48 h
Details: 10 µM unless noted
This is part of a sample that, as a whole, favours compounds with a hit. Of some 83,000 tested, about 20% had one in any assay. The source made the active and inactive calls. Rule for the calls: active = growth percent below 10; inactive = the rest.
Hi there, use one of these labels in your reply, thanks! y = active, n = inactive

INPUT: Which result was noted for this compound in the test: NCCCCn1c(SCCc2c[nH]c3ccccc23)nnc1-c1ccc2ccccc2n1
OUTPUT: y

INPUT: Which result was noted for this compound in the test: CN(C)c1ccc(/C=C/c2n(Cc3ccc4ccccc4c3)c3ccccc3[n+]2Cc2ccc3ccccc3c2)cc1
OUTPUT: y

INPUT: Which result was noted for this compound in the test: O=C(CSc1nnc(-c2ccc(-c3nc4ccc(Cl)cc4[nH]3)cc2)o1)Nc1ccccc1
OUTPUT: y

INPUT: Which result was noted for this compound in the test: OCCn1cc(-c2nc3ccc4[nH]ncc4c3c3c2CCCC3)cn1
OUTPUT: n

INPUT: Which result was noted for this compound in the test: Cc1ccccc1Nc1nnc(-c2c[nH]c3ccccc23)o1
OUTPUT: y

INPUT: Which result was noted for this compound in the test: CN(C)c1nc(NCCNS(=O)(=O)c2ccc(C3=Nc4c(N)nc(N)nc4NC(c4ccc(Cl)cc4)C3)cc2)nc(N2CCOCC2)n1 (stereo unspecified)
OUTPUT: n

INPUT: Which result was noted for this compound in the test: COc1ccc2oc(=O)c(-c3csc(N/N=C(\C)c4cc(OC)c(OC)c(OC)c4)n3)cc2c1
OUTPUT: n

INPUT: Which result was noted for this compound in the test: CCc1ccc(SC2c3cc(OC)ccc3Oc3nc(N)c(C#N)c(N)c32)cc1 (stereo unspecified)
OUTPUT: y

INPUT: Which result was noted for this compound in the test: COc1cccc(-c2ccc(/C=N/NC(=O)c3[nH]c4ccc(Br)cc4c3-c3ccccc3)s2)c1
OUTPUT: y

INPUT: Which result was noted for this compound in the test: CC1=C(C(=O)Nc2ccccc2)C(c2cccc3ccccc23)n2c(nc3ccccc32)N1 (stereo unspecified)
OUTPUT: n

INPUT: Which result was noted for this compound in the test: COc1cc(C2CC(c3ccc(F)cc3)=Nc3c(N)nc(N)nc3N2)ccc1Oc1nc(Nc2ccc(F)cc2)nc(N(C)C)n1 (stereo unspecified)
OUTPUT: n
